Ref: paper PMC5736220

- testSystem: T1, protocadherin-15 EC1+2, wild type, His-tagged (mouse, UniProt Q99PJ1 27-259)
- T1 construct: Protocadherin-15 (PCDH15), mouse, N-terminal fragment EC1+2; pET21a, NdeI/XhoI; predicted molecular weight 27.5 kDa; Held on the Ni-NTA chip by its His tag in SPR; also called pcdh15; pcdh15(WT); not shown: His6, C-terminal, kept
- measurementProtocol: SPR; Biacore T100, Ni-NTA chip, 6xHis pcdh15 immobilised, tag-free cdh23 0.25 to 30 μM injected, 25°C, SEC buffer; global kinetic fit with EVILFIT (distribution model)
- testContext: both partners purified
quantityMeasured: koff (s⁻¹)
Give bare numbers, in s⁻¹.

List koff for every entry below, keeping the order given.
1. cadherin-23 EC1+2 (residues 1-205) F7E, tagless (domain or fragment, mouse, an Ala residue included between CDH23 EC2 and the intein tag to improve cleavage efficiency; Mutant of m8; That the added Ala stays on the C-terminus after cleavage is surmised; also called cdh23(F7E)) QVNRLPEFTNHFFDTYLLISEDTPVGSSVTQLLARDMDNDPLVFGVSGEEASRFFAVEPDTGVVWLRQPLDRETKSEFTVEFSVSDHQGVITRKVNIQVGDVNDNAPTFHNQPYSVRIPENTPVGTPIFIVNATDPDLGAGGSVLYSFQPPSPFFAIDSARGIVTVIQELDYEVTQAYQLTVNATDQDKTRPLSTLANLAIIITDA
2. cadherin-23 EC1+2 (residues 1-205) S76V, tagless (domain or fragment, mouse, an Ala residue included between CDH23 EC2 and the intein tag to improve cleavage efficiency; Mutant of m8; That the added Ala stays on the C-terminus after cleavage is surmised; also called cdh23(S76V)) QVNRLPFFTNHFFDTYLLISEDTPVGSSVTQLLARDMDNDPLVFGVSGEEASRFFAVEPDTGVVWLRQPLDRETKVEFTVEFSVSDHQGVITRKVNIQVGDVNDNAPTFHNQPYSVRIPENTPVGTPIFIVNATDPDLGAGGSVLYSFQPPSPFFAIDSARGIVTVIQELDYEVTQAYQLTVNATDQDKTRPLSTLANLAIIITDA
3. cadherin-23 EC1+2 (residues 1-205), wild type, tagless (domain or fragment, mouse, an Ala residue included between CDH23 EC2 and the intein tag to improve cleavage efficiency; pTXB1, NdeI/SapI; That the added Ala stays on the C-terminus after thiol-induced cleavage, and that a start Met precedes residue 1, are surmised; also called tag-free cdh23; tagless cdh23) QVNRLPFFTNHFFDTYLLISEDTPVGSSVTQLLARDMDNDPLVFGVSGEEASRFFAVEPDTGVVWLRQPLDRETKSEFTVEFSVSDHQGVITRKVNIQVGDVNDNAPTFHNQPYSVRIPENTPVGTPIFIVNATDPDLGAGGSVLYSFQPPSPFFAIDSARGIVTVIQELDYEVTQAYQLTVNATDQDKTRPLSTLANLAIIITDA
4. cadherin-23 EC1+2 (residues 1-205) T15E, tagless (domain or fragment, mouse, an Ala residue included between CDH23 EC2 and the intein tag to improve cleavage efficiency; Mutant of m8; That the added Ala stays on the C-terminus after cleavage is surmised; also called cdh23(T15E)) QVNRLPFFTNHFFDEYLLISEDTPVGSSVTQLLARDMDNDPLVFGVSGEEASRFFAVEPDTGVVWLRQPLDRETKSEFTVEFSVSDHQGVITRKVNIQVGDVNDNAPTFHNQPYSVRIPENTPVGTPIFIVNATDPDLGAGGSVLYSFQPPSPFFAIDSARGIVTVIQELDYEVTQAYQLTVNATDQDKTRPLSTLANLAIIITDA

1: 0.22; 2: 0.18; 3: 0.2; 4: 0.11
